assay: in vivo; conditions: mouse, iv, 1 mg/kg

{"compound": "CCc1c2c(nc3ccc(O)cc13)-c1cc3c(c(=O)n1C2)COC(=O)[C@]3(O)CC [SN38]", "half-life": "34 min"}

* * *

Biological target: topoisomerase I (Topo I) (Homo sapiens)
Sequence (P11387 1-765): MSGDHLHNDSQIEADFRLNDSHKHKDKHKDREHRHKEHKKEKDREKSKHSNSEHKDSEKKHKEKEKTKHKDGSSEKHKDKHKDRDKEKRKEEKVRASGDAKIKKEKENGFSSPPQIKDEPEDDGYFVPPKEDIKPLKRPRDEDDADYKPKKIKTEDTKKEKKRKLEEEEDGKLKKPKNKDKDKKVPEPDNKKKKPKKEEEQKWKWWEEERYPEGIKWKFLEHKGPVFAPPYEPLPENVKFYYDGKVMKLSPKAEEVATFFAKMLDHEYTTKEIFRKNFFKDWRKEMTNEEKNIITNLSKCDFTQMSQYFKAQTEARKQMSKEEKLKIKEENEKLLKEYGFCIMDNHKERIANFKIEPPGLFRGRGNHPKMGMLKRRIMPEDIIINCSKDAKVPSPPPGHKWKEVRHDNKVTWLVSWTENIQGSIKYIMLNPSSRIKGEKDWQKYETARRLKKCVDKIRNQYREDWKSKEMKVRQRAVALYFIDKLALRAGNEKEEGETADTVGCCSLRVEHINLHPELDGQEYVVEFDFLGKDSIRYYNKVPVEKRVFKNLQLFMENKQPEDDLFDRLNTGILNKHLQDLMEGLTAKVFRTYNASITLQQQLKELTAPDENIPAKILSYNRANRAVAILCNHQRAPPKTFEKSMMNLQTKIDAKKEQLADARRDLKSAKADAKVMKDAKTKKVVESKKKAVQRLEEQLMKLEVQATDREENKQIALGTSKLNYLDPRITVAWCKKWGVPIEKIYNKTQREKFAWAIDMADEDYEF
Assay: Topo I enzyme-inhibitory activity by agarose-gel electrophoresis (plasmid relaxation)
Assay type: biochemical
Conditions: 0.75 U Topo I, pNO1 plasmid, 37 °C, 30 min; compounds listed by group (Group A / Group B); read-out: inhibition of topoisomerase I (Topo I) enzymatic activity, IC50
pIC50: −log10 of the molar value.
Below, each of the molecules is paired with its reported pIC50 value.
measured_attribute: pIC50

{"molecule": "CC[C@@]1(O)C(=O)OCc2c1cc1n(c2=O)Cc2c-1c(=O)c1cc(F)c(CN(C)C3CC3)cc1n2C1CCCC1", "reading": "6.30 to 6.70"}
{"molecule": "CC[C@@]1(O)C(=O)OCc2c1cc1n(c2=O)Cc2c-1c(=O)c1cc(F)c(N)cc1n2C1CCCC1", "reading": "> 6.70"}
{"molecule": "CC[C@@]1(O)C(=O)OCc2c1cc1n(c2=O)Cc2c-1c(=O)c1cc(F)ccc1n2CCN1CC2(CC2)C1", "reading": "6.30 to 6.70"}
{"molecule": "CC[C@@]1(O)C(=O)OCc2c1cc1n(c2=O)Cc2c-1c(=O)c1cc(F)ccc1n2-c1cccnc1", "reading": "6.30 to 6.70"}
{"molecule": "CC[C@@]1(O)C(=O)OCc2c1cc1n(c2=O)Cc2c-1c(=O)c1cc(F)ccc1n2C", "reading": "> 6.70"}
{"molecule": "CC[C@@]1(O)C(=O)OCc2c1cc1n(c2=O)Cc2c-1c(=O)c1cc(F)c([C@@H](C)O)cc1n2C1CCCC1 (single isomer, unassigned)", "reading": "6.30 to 6.70"}
{"molecule": "CC[C@@]1(O)C(=O)OCc2c1cc1n(c2=O)Cc2c-1c(=O)c1ccccc1n2C", "reading": "> 6.70"}
{"molecule": "CC[C@@]1(O)C(=O)OCc2c1cc1n(c2=O)Cc2c-1c(=O)c1cc(F)c(N)cc1n2-c1cc(OC)cc(C(C)C)c1", "reading": "6.30 to 6.70"}
{"molecule": "CC[C@@]1(O)C(=O)OCc2c1cc1n(c2=O)Cc2c-1c(=O)c1cc(F)c(CO)cc1n2C1CCCC1", "reading": "6.30 to 6.70"}
